Molecular target: AgRvs167
Experiment: SPOT peptide array binding signal intensity (averaged, normalized) (arbitrary units (background-subtracted, floor 0; scale differs between SH3 domains)); higher = stronger binding of the SH3 domain to the peptide
quantity: SPOT peptide array binding signal intensity
Numbers only.

Reference set (5 entries):
binder=DRIRMFIRFPKFLLE value_reported=4.33
binder=RVRKTHVPASKRPSG value_reported=1
binder=VAPPPLPNRQLPNLD value_reported=952
binder=LKRITSPPLPPRADS value_reported=1890
binder=FYNRTAFQLPGDARV value_reported=1.83

State the recorded SPOT peptide array binding signal intensity for every item in the following list.
1. NMLKKKPLKKPLKRF
2. SSAAPPPPPRRATPE

[6.17, 446]
